# assayOverview: Mycobacterium tuberculosis growth inhibition, primary screen (AID 1259343)
# measurementContext: at 10 µM
About 2,900 (47%) of roughly 6,200 compounds were called active. No stated cut-off is given here; in the data, active means inhibition above about 50%; inactive means the rest. The set was probably picked from earlier hits. This is one part of the list.
Field 'call' accepts active, inactive

Which outcome did this test record for the compound CCOc1ccc(-c2nnc(SCC#N)o2)cc1 ?
inactive

Which outcome did this test record for the compound Cc1nc(SCC(=O)N(C)Cc2ccsc2)c(C(N)=O)c(C)c1C ?
inactive

Which outcome did this test record for the compound O=c1oc2ccccc2c(O)c1C(c1ccccc1O)c1c(O)c2ccccc2oc1=O ?
active

Which outcome did this test record for the compound O=c1c(Br)cccc(Br)c1O ?
active

Which outcome did this test record for the compound COC(=O)c1ccc(NC(=O)c2ccc(Br)o2)cc1 ?
active

Which outcome did this test record for the compound NC1=NC(c2ccc(-c3ccccc3)cc2)n2c(nc3ccccc32)N1 (configuration not stated) ?
inactive

Which outcome did this test record for the compound CCNC(=S)NN=Cc1ccco1 ?
inactive

Which outcome did this test record for the compound CC(=NNC(=S)NC1CCCCC1)c1ccc(C)o1 ?
inactive

Which outcome did this test record for the compound Cc1ccn2c(=O)nc(SCc3ccc(Br)cc3)nc2c1 ?
inactive

Which outcome did this test record for the compound Cc1cccc(NC(=O)c2cc(Oc3ccc([N+](=O)[O-])cc3F)n(C)n2)c1 ?
inactive

Which outcome did this test record for the compound Fc1ccc(N2CCN(C[C@H]3CN4CC[C@H]3C[C@@H]4CNC(=S)Nc3ccc(-n4cccn4)cc3)CC2)cc1 ?
active

Which outcome did this test record for the compound S=c1[nH]cc(-c2ccc(Cl)cc2)o1 ?
inactive

Which outcome did this test record for the compound O=c1oc2ccccc2c(O)c1C(c1cncs1)c1c(O)c2ccccc2oc1=O ?
inactive

Which outcome did this test record for the compound COc1ccc(-c2ccc(C(=O)NS(C)(=O)=O)c(F)c2)c(F)c1 ?
active

Which outcome did this test record for the compound CCc1cc(=O)[nH]c(-n2nc(C)cc2NC(=O)c2cccc([N+](=O)[O-])c2)n1 ?
active

Which outcome did this test record for the compound O=C(NCCc1ccc(Cl)cc1Cl)c1cn[nH]c1 ?
active

Which outcome did this test record for the compound O=c1oc2ccccc2c(O)c1C(c1ccc2c(c1)OCO2)c1c(O)c2ccccc2oc1=O ?
active

Which outcome did this test record for the compound CC1CCC(NC(=O)CSc2nnc(C(C)C)o2)CC1 (configuration not stated) ?
inactive

Which outcome did this test record for the compound C=CCN=c1scc(-c2ccccc2)n1N=Cc1ccccn1 ?
inactive

Which outcome did this test record for the compound COc1cc(NC(=O)C(C)Oc2ccc(F)c(F)c2)cc(OC)c1 (configuration not stated) ?
inactive

Which outcome did this test record for the compound NC(CCc1ccccc1)c1csc(Nc2nncc3ccccc23)n1 (configuration not stated) ?
active

Which outcome did this test record for the compound CCOc1ccccc1CNC(=O)c1ccc(-c2cc(-c3ccc(Cl)cc3Cl)[nH]n2)cc1 ?
inactive

Which outcome did this test record for the compound Cc1ccn2c(=O)nc(SCc3cccc(Cl)c3)nc2c1 ?
active

Which outcome did this test record for the compound Cc1ccc(C=NNC(=S)NC(C)C)o1 ?
active

Which outcome did this test record for the compound CSc1ccc(Cn2c(C)c(C(=O)NCc3cccc([N+](=O)[O-])c3)sc2=O)cc1 ?
inactive

Which outcome did this test record for the compound COc1ccc(-c2cc(C(=O)NC3CC3)c(C)n2-c2cccc(OC)c2)cc1 ?
inactive

Which outcome did this test record for the compound CCOC(=O)NC(O)C(F)(F)C(F)(F)C(F)(F)C(F)(F)C(F)(F)C(F)F (configuration not stated) ?
inactive

Which outcome did this test record for the compound CC(C)c1ccc(C2N=C(N)Nc3nc4ccccc4n32)cc1 (configuration not stated) ?
inactive

Which outcome did this test record for the compound Cc1ccn2c(=O)nc(SCc3cccc(C(F)(F)F)c3)nc2c1 ?
inactive

Which outcome did this test record for the compound COc1cccc(-c2ccc(=O)n(Cc3cccc(F)c3)n2)c1 ?
inactive

Which outcome did this test record for the compound CC(C)CN(CCC(=O)O)c1nc(-c2ccccc2Cl)nc2ccccc12 ?
inactive

Which outcome did this test record for the compound Cc1ccn2c(=O)nc(SCCc3ccccc3)nc2c1 ?
active

----------
# assayOverview: Mycobacterium tuberculosis growth inhibition, primary screen (AID 1259343)
# measurementContext: at 10 µM, stronger effect = higher value
In all, about 6,200 compounds went through this assay and about 2,900 (47%) were called active. So high a share suggests a set chosen from earlier hits. The list shows a part of the results.
property: inhibition (%)
// note: answer is a bare numeric in %

Fill in inhibition for record COc1ccc(CN2N=NC3C(=O)N(c4ccc(OC)c(Cl)c4)C(=O)C32)cc1 (stereo not drawn)
83.8

Fill in inhibition for record Cc1cc2cccc(C(=O)N3CCN4CCN(C)C(=O)C4C3)c2o1 (stereo not drawn)
0.8

Fill in inhibition for record CCOc1ccccc1CSc1nc2ccsc2c(=O)n1C
102

Fill in inhibition for record NC(=S)Cc1nc2ccccc2[nH]1
98.2

Fill in inhibition for record O=c1c2sccc2nc(SCCc2ccccn2)n1-c1ccccc1
12.8

Fill in inhibition for record CNC(=S)NN=C(C)c1ccc(Cl)s1
47.3

Fill in inhibition for record O=[N+]([O-])c1cc(Cl)ccc1NS(=O)(=O)c1cccc(C(F)(F)F)c1
-1.17

Fill in inhibition for record c1ccc(-c2noc3nc(NC4CC4)ccc23)cc1
44.6

Fill in inhibition for record COCCn1c(=S)[nH]c2sc3c(c2c1=O)CCC(C)C3 (stereo not drawn)
-21.7

Fill in inhibition for record COC(=O)c1ccc(OC)c(CN2N=NC3C(=O)N(c4ccc(OC)c(Cl)c4)C(=O)C32)c1 (stereo not drawn)
55.6

Fill in inhibition for record Cc1cccc(CN2CCN(Cc3ccc(Cl)c(F)c3)CC2=O)c1
6.7

Fill in inhibition for record COc1cc(C(=O)Nc2cc(C)cc(C)c2)cc(Cl)c1O
-11.6

Fill in inhibition for record COC(=O)c1ccc(C(=O)NNc2nc3c(C)cccc3s2)cc1
99.7

Fill in inhibition for record c1ccc2[nH]c(CCC3CCCCC3)nc2c1
-43.3

Fill in inhibition for record O=S(=O)(Nc1cc(F)ccc1F)c1ccc(Cl)cc1F
64.4

Fill in inhibition for record Cc1nc(SCc2nc3ccccc3o2)c2ccccc2n1
51.7

Fill in inhibition for record C=C(C)CNC(=S)NN=C(C)c1ccc(Cl)s1
102

Fill in inhibition for record CCCCCCNC(=O)n1cc(F)c(=O)[nH]c1=O
97

Fill in inhibition for record CNC(=O)c1ccc(N(C)Cc2ccc(Cl)s2)nc1
18.8

Fill in inhibition for record CCCCS(=O)(=O)N(C)Cc1ccc(-c2ccc(Br)cc2)o1
83.2

Fill in inhibition for record COc1ccc(Cl)cc1NCC(=O)N1CCc2sccc2C1
83.7

Fill in inhibition for record CCOC(=O)NN=C(C)c1ccc(Cl)s1
19.5

Fill in inhibition for record Cc1ccccc1C(=O)Nc1cc(-c2ccco2)nn1-c1nc(C)c(C)c(=O)[nH]1
-10.1

----------
# assayOverview: Mycobacterium tuberculosis growth inhibition, primary screen (AID 1259343)
# measurementContext: at 10 µM, stronger effect = higher value
The campaign covered roughly 6,200 compounds. About 2,900 (47%) were called active. The set was probably picked from earlier hits. This is one part of the list.
property: inhibition (%)
// note: answer is a bare numeric in %

Fill in inhibition for record c1csc(-c2nc(CSc3ncnc4sccc34)co2)c1
24.4

Fill in inhibition for record CCCn1c(C2CCCCC2)nc2c(c(=O)c3ccccc3n2C)c1=O
12.9

Fill in inhibition for record O=C(CNc1ccc(Cl)cc1F)N1CCCc2ccccc21
50.7

----------
# assayOverview: Mycobacterium tuberculosis growth inhibition, primary screen (AID 1259343)
# measurementContext: at 10 µM
The campaign covered roughly 6,200 compounds. About 2,900 (47%) were called active. Rule as the data show it: active = inhibition above about 50%; inactive = the rest. So high a share suggests a set chosen from earlier hits. Some of the results follow.
Field 'call' accepts Y (active), N (inactive)

Which outcome did this test record for the molecule O=C(COc1ccc(F)cc1)N1CCOC(COc2cccc(C(F)(F)F)c2)C1 (stereo not drawn) ?
N

Which outcome did this test record for the molecule C=CCN(c1ccccc1)S(=O)(=O)c1ccc(Br)cc1Cl ?
N

Which outcome did this test record for the molecule Nc1ccc(-c2nc3cc(Cl)ccc3o2)cc1 ?
Y

----------
# assayOverview: Mycobacterium tuberculosis growth inhibition, primary screen (AID 1259343)
# measurementContext: at 10 µM, stronger effect = higher value
Among all 6,200 compounds or so, about 2,900 (47%) were called active. So high a share suggests a set chosen from earlier hits. The list shows a part of the results.
So basically, the class depends on measured inhibition, and the ranges are bottom range = under 20%, center range = from 20% up to 70%, top range = 70% and over

Pick a category. Item: Nc1ccc2c(c1)Cc1ccccc1-2
bottom range

Pick a category. Item: O=C1C2=C(Nc3ccccc3S(=O)(=O)C2c2ccc(Cl)cc2)c2ccccc21 (configuration not stated)
center range

Pick a category. Item: COC(=O)c1ccc(COc2ccc(C3C4=C(Nc5nnnn53)C(C(C)(C)C)CCC4)cc2)cc1 (configuration not stated)
top range

Pick a category. Item: Cc1cc(=O)[nH]c(-n2nc(-c3cccs3)cc2NC(=O)c2ccco2)n1
top range

Pick a category. Item: O=C(Cc1csc(NC(=O)NC2CCCCC2)n1)Nc1ccccc1Oc1ccccc1
bottom range

Pick a category. Item: O=S(=O)(c1cccs1)n1nnc2ccccc21
center range

Pick a category. Item: CC1CCC2(CC1)Oc1ccccc1C1CC(c3ccccc3)=NN12 (configuration not stated)
center range

Pick a category. Item: COc1ccccc1OCCCN1C(=O)C2(OCCCO2)c2ccccc21
center range

Pick a category. Item: O=C1C2=C(Nc3ccccc3SC2c2cccs2)c2ccccc21 (configuration not stated)
center range

Pick a category. Item: COCCCn1c(-c2ccc(C)cc2)nc2oc3ccccc3c(=O)c2c1=O
bottom range

Pick a category. Item: Cc1ccc(-n2nc3c(c2NC(=O)/C=C\c2ccccc2)CSC3)cc1
top range
